Target: Carboxy-terminal domain RNA polymerase II polypeptide A small phosphatase 1 (Homo sapiens, UniProt Q9GZU7)
Sequence (Q9GZU7 whole entry, the tested form may be a part): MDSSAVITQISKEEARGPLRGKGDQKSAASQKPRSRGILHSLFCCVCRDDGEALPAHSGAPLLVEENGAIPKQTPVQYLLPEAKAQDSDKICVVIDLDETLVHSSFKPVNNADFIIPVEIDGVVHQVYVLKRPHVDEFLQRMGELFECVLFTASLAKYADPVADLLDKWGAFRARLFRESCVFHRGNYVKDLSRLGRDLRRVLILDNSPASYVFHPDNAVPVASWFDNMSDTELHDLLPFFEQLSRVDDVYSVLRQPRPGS
Test: CTDSP1 inhibitors, concentration-response, biochemical, absorbance readout, ultra-high-throughput screen actives (AID 540297)
Assay type: functional
The source made the active and inactive calls.
IC50 values, listed per item

What value of IC50 has been reported for the following molecule? O=P(c1ccccc1)(c1ccccc1)c1cc(S(=O)(=O)O)ccc1O
9.24 µM (active)

// same read-out, input: COc1cc2c(cc1NC(=O)CSc1nc3ccccc3[nH]1)oc1ccccc12
17.1 µM (active)

// same read-out, input: Cc1ccc2[nH]c(/C(C#N)=C\c3ccc(N4CCCCC4)c([N+](=O)[O-])c3)nc2c1
2.45 µM (active)

// same read-out, input: CN(C)S(=O)(=O)c1ccc(NC(=O)Cc2ccc(S(=O)(=O)N3CCOCC3)s2)cc1
9.34 µM (active)

// same read-out, input: CC(C)c1ccc(/C=C2\SC(=O)N(CC(=O)NC3C=CS(=O)(=O)C3)C2=O)cc1 (stereo unspecified)
11.8 µM (active)

// same read-out, input: Cc1cc2oc(=O)cc(-c3cc4ccccc4o3)c2cc1O
3.8 µM (active)

###

Target: RNA-binding protein pos-1 (Caenorhabditis elegans, UniProt G5EF15)
Sequence (G5EF15 whole entry): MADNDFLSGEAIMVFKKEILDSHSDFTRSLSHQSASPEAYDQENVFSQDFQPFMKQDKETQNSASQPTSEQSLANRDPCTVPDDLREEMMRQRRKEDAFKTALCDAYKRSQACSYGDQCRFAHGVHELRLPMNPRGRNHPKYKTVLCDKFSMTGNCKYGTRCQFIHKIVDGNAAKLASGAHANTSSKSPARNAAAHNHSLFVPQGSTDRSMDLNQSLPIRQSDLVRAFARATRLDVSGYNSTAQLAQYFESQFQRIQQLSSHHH
Experiment: disruptors of C. elegans POS-1 RNA interaction – biochemical, fluorescence polarization, dose response (AID 1964);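 note: purified POS-1 fused to maltose binding protein made in E. coli; potency of compounds blocking POS-1 binding to fluorescent RNA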
Activity calls are given as the source filed them.
EC50 values, listed per item

What value of EC50 has been reported for the following compound? Cc1n[nH]c(C)c1Sc1ccccc1/N=C/c1cc(Cl)cc([N+](=O)[O-])c1O
> 300 µM (inconclusive)

// same read-out, input: Cc1ccc(C)n1-c1ccc(C(=O)O)cc1
13.9 µM (active)

// same read-out, input: Cc1ccc(-n2nc(C)c(/C=N/NC(=O)c3ccc(O)cc3O)c2O)cc1
76.9 µM (active)

// same read-out, input: O=C(/C=C/c1ccco1)NC(=S)Nc1ccc(C(=O)O)cc1
8.75 µM (active)

// same read-out, input: COc1ccc(OC)c(N2C(=O)NC(=O)/C(=C\c3c[nH]c4ccccc34)C2=O)c1
> 300 µM (not active)

// same read-out, input: COc1ccc(C2C(C#N)=C(N)OC3=C2C(=O)CC(C)(C)C3)cc1 (stereo unspecified)
69.7 µM (active)

// same read-out, input: CCOC(=O)N1CCN(C2=Nc3cccc4cccc2c34)CC1
> 300 µM (not active)

// same read-out, input: CCN(CC)CCCNC(=O)CCC(=O)NNc1nc2ccccc2c2nc(C)nn12
160 µM (active)

// same read-out, input: COc1ccc(/C=C2\SC(=S)N(CCCC(=O)NC3CCCC3)C2=O)cc1OC
57.5 µM (active)

// same read-out, input: c1coc(-c2nnc(-c3ccco3)nn2)c1
7.92 µM (inconclusive)

// same read-out, input: CCN1C/C(=C/c2cccs2)c2nc3ccccc3c(C(=O)O)c2C1
39.2 µM (active)

###

AC50 values, listed per item
Molecular target: Dual specificity tyrosine-phosphorylation-regulated kinase 1A (Rattus norvegicus, UniProt Q63470)
Type: biochemical, Homo sapiens
The source made the active and inactive calls.

Solved cases below.
>>> recorded_measurement("Oc1[nH]c2ccc(Br)cc2c1N=NC(=S)N1CCOCC1")
"7.39 µM (active)"
>>> recorded_measurement("CCN(CC)CCCNc1ccc2ncn3c4ccc(O)cc4c(=O)c1c23")
"2.77 µM (active)"
>>> recorded_measurement("O=C(COc1ccccc1)Nc1cccc(-c2cn3cccnc3n2)c1")
"3.85 µM (active)"
>>> recorded_measurement("Cc1ncc(CO)c(/C=N/Nc2ccc(C(F)(F)F)cn2)c1O")
"5.06 µM (active)"
>>> recorded_measurement("CCCCN.N#C/C(=C\\c1ccc(O)cc1)C(=O)O")
"3.24 µM (active)"

Moving on to the next compound.
What value of AC50 has been reported for the following compound? CCN1CCN(Cc2ccc(NC(=O)c3ccc(C)c(/C=C/c4cnc(Nc5cc(N6CCNCC6)nc(C)n5)cn4)c3)cc2C(F)(F)F)CC1
12.8 µM (active)

###

Molecular target: COUP transcription factor 2 (Homo sapiens);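 note: HEK293 cells transiently cotransfected with COUP-TFII expression vector and reporter; luciferase reporter luminescence driven by COUP-TFII from the pX2-168 reporter plasmid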
Sequence (P24468 whole entry): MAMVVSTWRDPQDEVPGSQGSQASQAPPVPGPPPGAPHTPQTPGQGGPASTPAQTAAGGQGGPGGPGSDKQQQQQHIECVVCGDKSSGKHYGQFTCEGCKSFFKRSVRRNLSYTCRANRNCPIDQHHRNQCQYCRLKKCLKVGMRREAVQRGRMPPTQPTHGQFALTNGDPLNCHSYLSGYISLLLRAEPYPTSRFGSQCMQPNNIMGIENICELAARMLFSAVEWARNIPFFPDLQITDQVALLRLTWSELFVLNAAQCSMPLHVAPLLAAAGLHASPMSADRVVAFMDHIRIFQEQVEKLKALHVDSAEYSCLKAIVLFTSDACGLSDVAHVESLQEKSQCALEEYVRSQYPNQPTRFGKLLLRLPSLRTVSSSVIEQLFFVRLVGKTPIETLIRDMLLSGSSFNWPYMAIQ
Test: Luminescence-based cell-based high throughput dose response assay to identify inhibitors of COUP-TFII (NR2F2).
Assay type: functional
Activity calls are given as the source filed them.
Choose the fitting class; nothing outside active, inactive is accepted.

Past entries and their recorded results:
>>> class_label("Cc1cccc2cc(-c3ccccc3)c(-c3ccccc3)c[n+]12")
"active"
>>> class_label("S=C(NCCc1ccccc1)Nc1cccc2cnccc12")
"active"
>>> class_label("N#CC(C#N)=C(Nc1ccc(F)cc1)SCc1cccc(Br)c1")
"inactive"
>>> class_label("CCOc1cc(S(=O)(=O)NCc2ccncc2)ccc1Cl")
"active"

# lookup: test call for Cc1ccnc(Nc2nc(-c3sc(C)nc3C)cs2)c1
inactive

###

Target: UniProt:P9WQ81
Sequence (P9WQ81 whole entry): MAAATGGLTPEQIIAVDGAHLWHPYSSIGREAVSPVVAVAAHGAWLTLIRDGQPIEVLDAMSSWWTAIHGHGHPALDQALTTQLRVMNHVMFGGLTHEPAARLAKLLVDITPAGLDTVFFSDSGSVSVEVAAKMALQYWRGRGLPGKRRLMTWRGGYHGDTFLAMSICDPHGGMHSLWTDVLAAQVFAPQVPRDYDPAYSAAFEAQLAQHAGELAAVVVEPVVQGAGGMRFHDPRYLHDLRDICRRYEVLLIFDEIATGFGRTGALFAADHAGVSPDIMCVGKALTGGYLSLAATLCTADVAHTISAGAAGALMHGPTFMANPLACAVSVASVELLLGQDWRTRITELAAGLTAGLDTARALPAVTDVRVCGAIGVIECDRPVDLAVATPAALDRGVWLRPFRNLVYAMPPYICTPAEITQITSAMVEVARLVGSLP
Assay: Mycobacterium tuberculosis BioA enzyme inhibitor Measured in Biochemical System Using Plate Reader - 2163-02_Inhibitor_Dose_CherryPick_Activity.
Type: functional, Mycobacterium tuberculosis UT205
Active and inactive are the calls of the source.
AC50 values, listed per item

>>> recorded_measurement("O=C(Nc1ccc(F)cc1)NC1CCN(Cc2nnnn2Cc2ccco2)CC1")
"3.58 µM (active)"
>>> recorded_measurement("COCCNC(=O)C[C@@H]1CC[C@@H]2[C@@H](COc3ccc(NC(=O)Nc4cccc(F)c4)cc3C(=O)N2C)O1")
"10.8 µM (active)"
>>> recorded_measurement("CC1CN(C(=O)Nc2ccc3snnc3c2)c2ccccc21 (centres undefined)")
"0.212 µM (active)"

What value of AC50 has been reported for the following molecule? Cc1ccc(Cc2c(C)nc3nc(SCC(=O)NCCN4CCOCC4)nn3c2C)cc1
12.6 µM (active)

###

Molecular target: Nonstructural protein 1 (Influenza A virus, UniProt Q194T2)
Sequence (Q194T2 whole entry): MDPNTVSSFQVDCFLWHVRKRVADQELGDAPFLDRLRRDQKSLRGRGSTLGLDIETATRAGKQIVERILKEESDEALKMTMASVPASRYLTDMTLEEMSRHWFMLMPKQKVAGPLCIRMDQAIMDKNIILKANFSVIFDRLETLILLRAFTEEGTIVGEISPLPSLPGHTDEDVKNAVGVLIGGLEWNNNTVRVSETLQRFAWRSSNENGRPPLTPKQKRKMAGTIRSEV
Format: functional, Influenza A virus (A/California/07/2009(H1N1))
Activity calls are given as the source filed them.
IC50 values, listed per item

What value of IC50 has been reported for the following compound? COc1ccccc1C(CCNCc1ccc(N(C)C)cc1)c1ccc(OC(C)C)cc1 (stereo unspecified)
8.29 µM (active)

###

Target: Nuclear receptor subfamily 5 group A member 2 (Homo sapiens);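 note: HEK293T cells transfected with LRH-1 and a StAR promoter luciferase reporter; potency for inhibitors that lower LRH-1 driven reporter light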
Sequence (O00482 whole entry): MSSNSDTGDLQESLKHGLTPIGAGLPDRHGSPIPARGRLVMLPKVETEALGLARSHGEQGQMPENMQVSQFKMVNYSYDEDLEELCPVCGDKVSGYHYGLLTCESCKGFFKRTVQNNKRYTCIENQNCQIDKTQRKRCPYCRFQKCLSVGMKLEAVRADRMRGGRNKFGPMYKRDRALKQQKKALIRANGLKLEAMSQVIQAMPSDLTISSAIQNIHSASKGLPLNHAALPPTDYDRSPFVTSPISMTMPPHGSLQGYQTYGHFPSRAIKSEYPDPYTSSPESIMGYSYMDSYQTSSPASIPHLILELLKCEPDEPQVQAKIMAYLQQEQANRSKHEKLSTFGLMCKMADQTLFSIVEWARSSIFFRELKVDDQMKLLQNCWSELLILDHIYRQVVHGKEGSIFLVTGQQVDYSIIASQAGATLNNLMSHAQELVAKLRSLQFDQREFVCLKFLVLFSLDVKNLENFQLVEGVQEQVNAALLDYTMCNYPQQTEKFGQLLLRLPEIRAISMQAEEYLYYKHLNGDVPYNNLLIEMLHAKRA
Type: functional, cell-based
Active and inactive are the calls of the source.
Choose the fitting class; nothing outside TRUE = active, FALSE = inactive is accepted.

Past entries and their recorded results:
>>> class_label("CCOc1ccc(NC(=O)COC(=O)CC2CCCCC2)cc1")
"FALSE"
>>> class_label("COC(=O)c1ccc(CNC(=O)COC(=O)c2cc(Cl)nc(Cl)c2)cc1")
"FALSE"
>>> class_label("Cc1cc(Br)ccc1NC(=O)CN1C(=O)CCC1=O")
"FALSE"

Below: the item to evaluate.
# lookup: test call for Cc1onc(-c2cccc(Cl)c2Cl)c1C(=O)ON=C(N)c1ccc([N+](=O)[O-])o1
TRUE

###

EC50 values, listed per item
Biological target: Short transient receptor potential channel 4 (Mus musculus, UniProt Q9QUQ5)
Sequence (Q9QUQ5 whole entry): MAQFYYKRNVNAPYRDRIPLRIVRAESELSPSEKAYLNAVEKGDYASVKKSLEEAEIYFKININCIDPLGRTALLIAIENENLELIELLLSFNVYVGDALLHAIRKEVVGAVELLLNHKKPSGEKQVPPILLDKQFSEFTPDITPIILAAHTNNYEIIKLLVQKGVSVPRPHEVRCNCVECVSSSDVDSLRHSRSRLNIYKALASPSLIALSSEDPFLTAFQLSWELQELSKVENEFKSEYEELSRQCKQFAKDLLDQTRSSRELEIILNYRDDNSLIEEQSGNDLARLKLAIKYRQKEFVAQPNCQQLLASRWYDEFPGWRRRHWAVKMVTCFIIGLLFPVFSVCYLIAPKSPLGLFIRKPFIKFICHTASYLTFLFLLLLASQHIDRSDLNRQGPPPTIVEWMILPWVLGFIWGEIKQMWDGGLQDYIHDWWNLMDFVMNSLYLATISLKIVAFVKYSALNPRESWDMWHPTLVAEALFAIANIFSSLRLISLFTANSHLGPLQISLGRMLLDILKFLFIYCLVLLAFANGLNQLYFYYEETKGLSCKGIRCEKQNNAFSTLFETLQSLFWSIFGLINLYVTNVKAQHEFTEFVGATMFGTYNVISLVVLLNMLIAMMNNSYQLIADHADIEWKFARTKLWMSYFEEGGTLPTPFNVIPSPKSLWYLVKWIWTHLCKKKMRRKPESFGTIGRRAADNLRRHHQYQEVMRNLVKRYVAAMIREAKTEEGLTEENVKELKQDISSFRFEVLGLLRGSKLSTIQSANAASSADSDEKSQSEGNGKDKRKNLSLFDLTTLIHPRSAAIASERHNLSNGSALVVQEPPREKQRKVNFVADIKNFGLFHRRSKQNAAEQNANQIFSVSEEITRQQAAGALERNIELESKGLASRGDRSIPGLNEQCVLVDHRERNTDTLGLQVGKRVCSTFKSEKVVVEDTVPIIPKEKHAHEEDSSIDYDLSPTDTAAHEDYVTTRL
Assay: calcium entry via TRPC4 opening agents – cell-based, HEK293 TRPC4/mu-opioid, Fluo-4 calcium, dose response (AID 434937)
Format: functional
Active and inactive are the calls of the source.

Solved cases below.
>>> recorded_measurement("Cn1c(O)c(/C=N/NC(=O)c2cc3ccccc3cc2O)c2ccccc21")
"5960 nM (active)"
>>> recorded_measurement("CCn1c(=O)cc(OCC(=O)NCCCN2CC(C)CC(C)C2)c2ccccc21 (centres undefined)")
"473 nM (active)"
>>> recorded_measurement("Cc1ccc(Cl)cc1NC(=O)CNCC(c1ccccc1)N(C)C (centres undefined)")
"376 nM (active)"

Moving on to the next compound.
Item CC1CC(C)CN(CCCNC(=O)c2csc3c2CCCCC3)C1 (centres undefined) with Short transient receptor potential channel 4 (Mus musculus, UniProt Q9QUQ5) - EC50?
4730 nM (active)
